test system: RXF 393 renal; test: NCI tumour cell line growth inhibition, 48 h
Can you tell me TGI for the items I'm about to list?

Q. Notebook: pull reported TGI for RXF 393 renal, entry Cc1ccc(C)n1-c1ccccc1C1C=CN(C(=O)OC(C)(C)C)C=C1
A. 60.4 µM

Q. Notebook: pull reported TGI for RXF 393 renal, entry C=CCc1ccccc1CC1(OCC)OC(=O)c2ccccc21 (stereo unspecified)
A. > 100 µM

Q. Notebook: pull reported TGI for RXF 393 renal, entry CC(O)c1ccc[n+](Cc2ccccc2)c1 (stereo unspecified)
A. > 400 µM

Q. Notebook: pull reported TGI for RXF 393 renal, entry N=[N+]=CC(=O)CCC(NC(=O)C(CCC(=O)C=[N+]=N)NC(=O)CCC(N)C(=O)O)C(=O)O (stereo unspecified)
A. > 100 µM

Q. Notebook: pull reported TGI for RXF 393 renal, entry COc1cc(/C=N/NC(=O)c2cnn3c2NC(c2ccccc2)C3)ccc1Oc1ccccc1 (stereo unspecified)
A. 4.53 µM

Q. Notebook: pull reported TGI for RXF 393 renal, entry O=C(c1ccccc1)N1OCCC1Nc1ccc(Br)cc1 (stereo unspecified)
A. > 10 µM

Q. Notebook: pull reported TGI for RXF 393 renal, entry CC1=C(C(=O)N(C(C)C)C(C)C)CC(C(=O)N(C(C)C)C(C)C)=C(C)N1
A. > 100 µM

Q. Notebook: pull reported TGI for RXF 393 renal, entry COc1ccc(N2C(=O)C3c4[nH]c5ccccc5c4C4CC(C)CC(C)C4C3C2=O)cc1 (stereo unspecified)
A. > 100 µM

Q. Notebook: pull reported TGI for RXF 393 renal, entry COc1cccc(-c2nc3ccccc3c(=O)[nH]2)c1OC
A. > 100 µM

Q. Notebook: pull reported TGI for RXF 393 renal, entry COc1ccc(C2=NN(C(N)=S)C(c3ccccc3)C2)cc1 (stereo unspecified)
A. 88.4 µM

Q. Notebook: pull reported TGI for RXF 393 renal, entry O=c1nc(NC(c2ccccc2)(c2ccccc2)c2ccccc2)ccn1CCNCCn1ccc(NC(c2ccccc2)(c2ccccc2)c2ccccc2)nc1=O
A. 25.6 µM

Origin of the recorded values: PubChem BioAssay (NCI)
